System: SF-295 CNS
Test: NCI tumour cell line growth inhibition, 48 h
Cut-off 5 µM on TGI, inclusive. At or above means TRUE; below means FALSE.

# compound, category
rows = [
    ("CS(=O)(=O)Nc1cc(-c2ccc3ncnc(Nc4ccc5c(cnn5Cc5cccc(F)c5)c4)c3c2)cnc1Cl", "FALSE"),
    ("COc1ccc2c(c1)C(=O)c1c-2n(CCCCl)c(=O)c2cc(OC)c(OC)cc12", "TRUE"),
    ("CCCCCCCCc1cc[n+](CC(=O)c2ccc(Br)cc2)cc1", "FALSE"),
    ("Cc1nnc(N)nc1C/C=C/C(Sc1ccc(Cl)cc1)c1ccccc1 (stereo not given)", "TRUE"),
    ("O=C1C=CC(=O)c2c(O)c(NCCCN3CCOCC3)c(Cl)c(O)c21", "TRUE"),
    ("CC1=CN(c2ccccc2)S2=C1c1sc3c(c1N2c1ccc(Br)cc1)CCCC3 (stereo not given)", "TRUE"),
    ("COP(C)(=O)C1=CCN(C(=O)OCC[Si](C)(C)C)CC1 (stereo not given)", "TRUE"),
    ("O=S1CCN(Cc2ccc(-c3ccc4ncnc(Nc5ccc(OCc6ccccc6)c(Cl)c5)c4c3)o2)CC1", "TRUE"),
    ("CC(C)C1CNC2N1C(=O)C2(C)OCc1ccccc1 (stereo not given)", "TRUE"),
    ("COc1ccc(C2CC(c3cc(Cl)c(C)cc3O)=NN2c2ccc(S(N)(=O)=O)cc2)cc1OC (stereo not given)", "TRUE"),
]

====

Test system: DU-145 prostate
Assay: NCI tumour cell line growth inhibition, 48 h
Collected TGI values appear next to each entry.
recordedEndpoint: TGI

# compound, recordedResult
data = [
    ("Cc1ccc(C2(c3ccc(C)cc3)SC(=C(C#N)C#N)c3ccccc32)cc1", "> 100 µM"),
    ("N#CCCOc1cccc(C2(N3CCCCC3)CCCCC2)c1", "> 100 µM"),
    ("O=C(NNC(=O)c1ccccc1O)c1ccccc1O", "> 100 µM"),
    ("O=C(/C=C/c1cccc(Br)c1)c1ccc(Cl)cc1", "30.3 µM"),
    ("COc1ccc(-c2cc(-c3ccccc3)nc(/N=C\\c3ccccc3)n2)c(O)c1", "> 100 µM"),
    ("Cc1cccc(NC(=O)/C=C/c2ccccc2)c1C", "> 100 µM"),
    ("CCOC(=O)c1nc2cc(C(F)(F)F)ccc2nc1Nc1cc(OC)c(OC)c(OC)c1", "> 100 µM"),
    ("O=C(c1ccccc1)C(C(=O)c1ccccc1)c1nc2ccccc2sc1=O", "> 25 µM"),
    ("c1ccc(-c2c(-c3ccccc3)[n+](Cc3ccc4ccccc4c3)c(-c3cccc4ccccc34)n2Cc2ccc3ccccc3c2)cc1", "1.44 µM"),
    ("O=C(O)c1cc2ccccc2c(N=Nc2ccc(S(=O)(=O)O)cc2)c1O", "> 100 µM"),
    ("C[n+]1c(-c2ccccc2)cc2/c(=C\\c3ccccc3)c3ccccc3n21", "10.6 µM"),
    ("CC1=CN(c2ccccc2)S2=C1c1sc3c(c1N2c1ccc(Br)cc1)CCCC3 (stereo not given)", "> 100 µM"),
    ("N#CCCN(CCC#N)CCN(CCN(CCC#N)CCC#N)CCN(CCC#N)CCC#N", "> 100 µM"),
    ("c1ccc(-c2cc(-c3cccs3)c(-c3cccs3)s2)cc1", "> 100 µM"),
    ("COCC(=O)Oc1cc(-c2ccc(C)cc2C)c(OC(=O)COC)c(-c2ccc(C)cc2C)c1", "30.2 µM"),
]
